# maps each entry to its IC50
target: Crk-like protein (Mus musculus, UniProt P47941, T315I); assay: Inhibition of CrkL in mouse BaF3 cells harbouring BCR-ABL1 T315I mutant measured after 6 hrs by immunoblotting analysis
Sequence (P47941 whole entry, looked up, stated change not applied): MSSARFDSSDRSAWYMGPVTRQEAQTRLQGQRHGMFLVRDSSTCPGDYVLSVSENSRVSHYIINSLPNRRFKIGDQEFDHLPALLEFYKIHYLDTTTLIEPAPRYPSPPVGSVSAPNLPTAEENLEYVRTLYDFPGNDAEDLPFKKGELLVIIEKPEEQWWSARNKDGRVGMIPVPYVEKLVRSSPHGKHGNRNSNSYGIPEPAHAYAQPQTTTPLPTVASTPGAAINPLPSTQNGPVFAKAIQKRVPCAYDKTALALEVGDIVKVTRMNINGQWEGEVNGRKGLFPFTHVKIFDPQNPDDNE

[[record]]
compound = "Cc1cn(-c2cc(NC(=O)c3ccc(C)c(Nc4nccc(-c5cccnc5)n4)c3)cc(C(F)(F)F)c2)cn1"
result = "> 5 µM"


Below: the item to evaluate.
**Q:** What value of measured IC50 is listed for Cc1nc(Nc2ncc(C(=O)Nc3c(C)cccc3Cl)s2)cc(N2CCN(CCO)CC2)n1 [DASATINIB ANHYDROUS] ?
**A:** > 5 µM

====

biological target: Tyrosine-protein kinase ABL1 (Homo sapiens)
Sequence (P00519 whole entry): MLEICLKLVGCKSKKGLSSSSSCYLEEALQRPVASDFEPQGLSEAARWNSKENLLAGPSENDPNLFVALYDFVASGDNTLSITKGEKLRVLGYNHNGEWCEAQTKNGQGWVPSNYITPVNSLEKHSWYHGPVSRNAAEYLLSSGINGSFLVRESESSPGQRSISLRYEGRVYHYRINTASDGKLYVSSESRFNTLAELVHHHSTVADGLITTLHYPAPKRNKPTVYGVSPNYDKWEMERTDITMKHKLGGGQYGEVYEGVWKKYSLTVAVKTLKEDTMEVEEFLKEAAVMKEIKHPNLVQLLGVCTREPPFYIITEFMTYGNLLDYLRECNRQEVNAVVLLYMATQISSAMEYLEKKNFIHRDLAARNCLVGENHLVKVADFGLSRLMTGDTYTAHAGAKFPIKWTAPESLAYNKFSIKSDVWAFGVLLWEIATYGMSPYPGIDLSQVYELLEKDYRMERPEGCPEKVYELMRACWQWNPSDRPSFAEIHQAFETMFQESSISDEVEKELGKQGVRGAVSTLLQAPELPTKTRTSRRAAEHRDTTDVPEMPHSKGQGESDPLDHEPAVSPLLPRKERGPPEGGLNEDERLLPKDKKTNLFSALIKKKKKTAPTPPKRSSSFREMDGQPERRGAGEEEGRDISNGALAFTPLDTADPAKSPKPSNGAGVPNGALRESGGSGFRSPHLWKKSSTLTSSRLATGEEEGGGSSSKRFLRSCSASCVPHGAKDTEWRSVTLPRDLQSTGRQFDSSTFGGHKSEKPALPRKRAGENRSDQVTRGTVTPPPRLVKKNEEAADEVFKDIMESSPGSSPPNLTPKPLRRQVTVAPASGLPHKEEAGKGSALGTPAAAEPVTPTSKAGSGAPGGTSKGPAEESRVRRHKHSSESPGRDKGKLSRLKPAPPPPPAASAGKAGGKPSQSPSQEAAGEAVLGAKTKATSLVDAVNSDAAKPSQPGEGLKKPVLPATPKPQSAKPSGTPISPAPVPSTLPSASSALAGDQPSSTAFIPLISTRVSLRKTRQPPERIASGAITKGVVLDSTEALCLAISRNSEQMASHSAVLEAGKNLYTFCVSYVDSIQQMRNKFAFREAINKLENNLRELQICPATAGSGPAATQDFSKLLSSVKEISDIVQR
readout_kind: IC50

**Q:** What value of measured IC50 is listed for CC(C)(C)c1cc(NC(=O)Nc2cccc(Cl)c2Cl)n(-c2ccc3c(c2)C[C@@H](C(=O)O)NC3)n1 ?
**A:** 57 nM

====

target: Ribosomal protein S6 kinase alpha-4 (Homo sapiens, UniProt O75676)
readout_kind: IC50

**Q:** What value of measured IC50 is listed for CNC(=O)c1cc(Oc2ccc(NC(=O)Nc3cc(C(C)(C)C)nn3-c3ccc4ncccc4c3)c(F)c2)ccn1 ?
**A:** > 1000 nM

====

biological target: Mitogen-activated protein kinase kinase kinase kinase 4 (Homo sapiens, UniProt O95819); experiment: Inhibition of human wild type HGK using Casein as substrate preincubated for 2 hrs followed by ATP addition and measured every 2 mins for […] by spectrophotometric analysis
readout_kind: IC50 (nM)
Your answer should be a plain number; it is taken to be in nM.

**Q:** What value of IC50 on Mitogen-activated protein kinase kinase kinase kinase 4 (Homo sapiens, UniProt O95819) does CNC(=O)c1cc(Oc2ccc(NC(=O)Nc3cc(C(C)(C)C)nn3-c3ccc4ncccc4c3)c(F)c2)ccn1 [REBASTINIB] have?
**A:** 45

====

target: Serine/threonine-protein kinase Sgk1 (Homo sapiens, UniProt O00141)
Sequence (O00141 whole entry): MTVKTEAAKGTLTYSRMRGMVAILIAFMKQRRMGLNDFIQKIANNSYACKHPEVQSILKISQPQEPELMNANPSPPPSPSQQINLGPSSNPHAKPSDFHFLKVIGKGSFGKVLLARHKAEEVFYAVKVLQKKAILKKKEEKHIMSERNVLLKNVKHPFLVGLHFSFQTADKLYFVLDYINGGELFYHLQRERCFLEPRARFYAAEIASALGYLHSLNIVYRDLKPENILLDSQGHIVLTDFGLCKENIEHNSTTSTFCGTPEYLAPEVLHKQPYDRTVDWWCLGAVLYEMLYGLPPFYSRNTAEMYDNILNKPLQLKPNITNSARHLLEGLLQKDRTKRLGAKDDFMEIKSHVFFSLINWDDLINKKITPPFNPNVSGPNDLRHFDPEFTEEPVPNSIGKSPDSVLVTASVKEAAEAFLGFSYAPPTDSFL
readout_kind: IC50

**Q:** What value of measured IC50 is listed for CNC(=O)c1cc(Oc2ccc(NC(=O)Nc3cc(C(C)(C)C)nn3-c3ccc4ncccc4c3)c(F)c2)ccn1 ?
**A:** > 1000 nM

====

target: CDK1/Cyclin A (Homo sapiens, UniProt P06493); assay: Inhibition of human wild type CDK1/cyclinA using RBER-CHKtide as substrate preincubated for 2 hrs followed by ATP addition and measured every 2 mins for […] by spectrophotometric analysis
readout_kind: IC50

**Q:** What value of measured IC50 is listed for CNC(=O)c1cc(Oc2ccc(NC(=O)Nc3cc(C(C)(C)C)nn3-c3ccc4ncccc4c3)c(F)c2)ccn1 [REBASTINIB] ?
**A:** > 1000 nM

====

target: Myotonin-protein kinase (Homo sapiens, UniProt Q09013)
Sequence (Q09013 whole entry): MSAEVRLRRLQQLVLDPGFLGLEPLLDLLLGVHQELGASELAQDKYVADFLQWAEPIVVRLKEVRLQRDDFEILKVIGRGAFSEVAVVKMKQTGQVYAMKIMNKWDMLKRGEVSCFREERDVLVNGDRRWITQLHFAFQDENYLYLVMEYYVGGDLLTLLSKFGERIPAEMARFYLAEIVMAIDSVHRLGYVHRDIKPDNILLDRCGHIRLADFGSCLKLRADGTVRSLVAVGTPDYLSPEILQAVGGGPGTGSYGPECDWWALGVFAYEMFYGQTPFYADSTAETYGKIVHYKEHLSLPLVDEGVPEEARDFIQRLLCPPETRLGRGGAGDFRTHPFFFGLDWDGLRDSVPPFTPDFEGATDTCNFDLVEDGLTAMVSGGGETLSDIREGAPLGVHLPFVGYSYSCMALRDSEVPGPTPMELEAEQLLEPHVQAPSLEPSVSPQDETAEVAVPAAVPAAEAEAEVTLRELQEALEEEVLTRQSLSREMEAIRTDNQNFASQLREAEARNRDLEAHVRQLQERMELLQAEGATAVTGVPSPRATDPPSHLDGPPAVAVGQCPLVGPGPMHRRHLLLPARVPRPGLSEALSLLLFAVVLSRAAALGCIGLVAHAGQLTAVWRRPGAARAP
readout_kind: IC50

**Q:** What value of measured IC50 is listed for CNC(=O)c1cc(Oc2ccc(NC(=O)Nc3cc(C(C)(C)C)nn3-c3ccc4ncccc4c3)c(F)c2)ccn1 ?
**A:** > 1000 nM

====

Target protein (sequence): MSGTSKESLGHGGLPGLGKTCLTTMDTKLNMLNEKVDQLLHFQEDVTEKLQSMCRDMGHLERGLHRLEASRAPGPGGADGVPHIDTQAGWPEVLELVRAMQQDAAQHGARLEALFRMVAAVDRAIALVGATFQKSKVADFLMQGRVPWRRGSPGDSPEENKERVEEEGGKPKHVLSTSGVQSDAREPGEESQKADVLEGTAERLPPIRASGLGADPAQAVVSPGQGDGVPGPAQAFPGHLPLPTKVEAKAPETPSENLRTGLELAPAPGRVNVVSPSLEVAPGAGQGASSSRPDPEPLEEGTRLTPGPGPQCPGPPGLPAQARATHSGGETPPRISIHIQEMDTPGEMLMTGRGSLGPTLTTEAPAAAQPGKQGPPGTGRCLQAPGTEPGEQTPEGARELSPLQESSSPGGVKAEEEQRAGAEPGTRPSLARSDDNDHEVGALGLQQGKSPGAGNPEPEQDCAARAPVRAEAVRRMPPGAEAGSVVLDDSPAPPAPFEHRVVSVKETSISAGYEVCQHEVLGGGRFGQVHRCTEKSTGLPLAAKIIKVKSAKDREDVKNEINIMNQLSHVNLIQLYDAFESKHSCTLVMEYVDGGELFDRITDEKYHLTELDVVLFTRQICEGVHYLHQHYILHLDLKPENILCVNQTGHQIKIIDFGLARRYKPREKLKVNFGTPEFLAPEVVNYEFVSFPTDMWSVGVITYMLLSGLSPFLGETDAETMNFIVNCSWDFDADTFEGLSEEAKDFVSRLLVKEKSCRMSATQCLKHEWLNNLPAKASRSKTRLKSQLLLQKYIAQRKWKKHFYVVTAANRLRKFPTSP
readout_kind: IC50

**Q:** What value of measured IC50 is listed for CNC(=O)c1cc(Oc2ccc(NC(=O)Nc3cc(C(C)(C)C)nn3-c3ccc4ncccc4c3)c(F)c2)ccn1 [REBASTINIB] ?
**A:** > 1 µM

====

target: Dual specificity protein kinase CLK1 (Homo sapiens)
Sequence (P49759 whole entry): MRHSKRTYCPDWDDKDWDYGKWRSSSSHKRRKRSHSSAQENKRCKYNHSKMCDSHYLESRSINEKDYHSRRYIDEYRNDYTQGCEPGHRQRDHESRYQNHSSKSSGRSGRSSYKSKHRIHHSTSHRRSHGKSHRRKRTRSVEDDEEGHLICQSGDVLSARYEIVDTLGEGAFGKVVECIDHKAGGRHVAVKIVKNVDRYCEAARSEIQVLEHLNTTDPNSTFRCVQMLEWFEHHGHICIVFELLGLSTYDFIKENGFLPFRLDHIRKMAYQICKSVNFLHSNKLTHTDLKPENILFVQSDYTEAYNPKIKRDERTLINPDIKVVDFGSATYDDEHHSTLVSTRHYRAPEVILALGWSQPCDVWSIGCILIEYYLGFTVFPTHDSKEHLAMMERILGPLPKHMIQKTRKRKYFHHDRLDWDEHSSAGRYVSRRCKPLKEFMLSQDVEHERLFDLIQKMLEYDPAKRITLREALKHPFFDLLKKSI
readout_kind: IC50

**Q:** What value of IC50 on Dual specificity protein kinase CLK1 (Homo sapiens) does CNC(=O)c1cc(Oc2ccc(NC(=O)Nc3cc(C(C)(C)C)nn3-c3ccc4ncccc4c3)c(F)c2)ccn1 [REBASTINIB] have?
**A:** > 1 µM

====

biological target: UniProt:Q15303
Sequence (Q15303 whole entry): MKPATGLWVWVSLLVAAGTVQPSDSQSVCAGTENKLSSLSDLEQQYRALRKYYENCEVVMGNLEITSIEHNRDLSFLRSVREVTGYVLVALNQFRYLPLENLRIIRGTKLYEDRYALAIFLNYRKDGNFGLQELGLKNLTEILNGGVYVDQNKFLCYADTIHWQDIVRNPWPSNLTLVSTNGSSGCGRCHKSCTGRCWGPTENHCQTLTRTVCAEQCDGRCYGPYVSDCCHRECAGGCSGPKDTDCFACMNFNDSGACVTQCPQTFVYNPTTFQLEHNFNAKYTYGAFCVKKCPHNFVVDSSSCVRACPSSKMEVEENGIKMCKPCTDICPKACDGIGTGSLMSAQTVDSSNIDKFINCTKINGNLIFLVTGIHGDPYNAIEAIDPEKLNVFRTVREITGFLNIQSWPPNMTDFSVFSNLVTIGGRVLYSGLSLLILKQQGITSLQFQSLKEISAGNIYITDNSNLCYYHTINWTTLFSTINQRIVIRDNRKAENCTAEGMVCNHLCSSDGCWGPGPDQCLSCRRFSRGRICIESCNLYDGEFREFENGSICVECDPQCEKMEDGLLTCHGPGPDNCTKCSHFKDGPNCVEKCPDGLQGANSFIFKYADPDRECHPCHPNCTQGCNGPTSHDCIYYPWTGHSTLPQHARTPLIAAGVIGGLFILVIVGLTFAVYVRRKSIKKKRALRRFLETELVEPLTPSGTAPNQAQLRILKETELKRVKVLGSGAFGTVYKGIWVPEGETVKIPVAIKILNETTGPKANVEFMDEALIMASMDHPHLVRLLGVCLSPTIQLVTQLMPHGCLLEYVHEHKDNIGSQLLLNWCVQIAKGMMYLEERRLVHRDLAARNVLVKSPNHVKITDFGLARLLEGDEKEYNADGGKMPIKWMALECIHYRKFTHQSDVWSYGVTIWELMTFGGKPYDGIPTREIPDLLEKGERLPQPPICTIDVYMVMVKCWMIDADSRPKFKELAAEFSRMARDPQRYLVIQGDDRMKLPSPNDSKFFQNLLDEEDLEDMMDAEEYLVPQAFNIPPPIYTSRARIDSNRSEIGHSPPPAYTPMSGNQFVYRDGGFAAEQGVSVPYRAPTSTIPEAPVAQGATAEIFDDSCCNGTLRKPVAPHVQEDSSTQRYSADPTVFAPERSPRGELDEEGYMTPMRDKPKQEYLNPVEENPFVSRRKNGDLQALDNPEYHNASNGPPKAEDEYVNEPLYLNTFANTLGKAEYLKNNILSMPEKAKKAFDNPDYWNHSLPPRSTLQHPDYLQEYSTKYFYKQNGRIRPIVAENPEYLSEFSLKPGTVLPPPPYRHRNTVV
pIC50: −log10 of the molar value.
readout_kind: pIC50

**Q:** What value of measured pIC50 is listed for CNC(=O)c1cc(Oc2ccc(NC(=O)Nc3cc(C(C)(C)C)nn3-c3ccc4ncccc4c3)c(F)c2)ccn1 ?
**A:** < 6.00

====

tested on: BaF3; experiment: cells; conditions: Mus musculus, BaF3, 72 h
readout_kind: pIC50
Quick note: pIC50 values are minus log10 of concentrations in mol/L.

[[record]]
compound = "Cc1cn(-c2cc(NC(=O)c3ccc(C)c(Nc4nccc(-c5cccnc5)n4)c3)cc(C(F)(F)F)c2)cn1"
readout_kind = "pIC50"
numeric_readout = 5.02


**Q:** What value of measured pIC50 is listed for Cc1nc(Nc2ncc(C(=O)Nc3c(C)cccc3Cl)s2)cc(N2CCN(CCO)CC2)n1 [DASATINIB ANHYDROUS] ?
**A:** 5.42

====

target: Mitogen-activated protein kinase kinase kinase 8 (Homo sapiens, UniProt P41279); experiment: Inhibition of human wild type COT1 using RBER-CHKtide as substrate preincubated for 2 hrs followed by ATP addition and measured every 2 mins for […] by spectrophotometric analysis
readout_kind: IC50

**Q:** What value of IC50 on Mitogen-activated protein kinase kinase kinase 8 (Homo sapiens, UniProt P41279) does CNC(=O)c1cc(Oc2ccc(NC(=O)Nc3cc(C(C)(C)C)nn3-c3ccc4ncccc4c3)c(F)c2)ccn1 have?
**A:** > 1000 nM

====

Molecular target: Testis-specific serine/threonine-protein kinase 2 (Homo sapiens, UniProt Q96PF2)
Sequence (Q96PF2 whole entry): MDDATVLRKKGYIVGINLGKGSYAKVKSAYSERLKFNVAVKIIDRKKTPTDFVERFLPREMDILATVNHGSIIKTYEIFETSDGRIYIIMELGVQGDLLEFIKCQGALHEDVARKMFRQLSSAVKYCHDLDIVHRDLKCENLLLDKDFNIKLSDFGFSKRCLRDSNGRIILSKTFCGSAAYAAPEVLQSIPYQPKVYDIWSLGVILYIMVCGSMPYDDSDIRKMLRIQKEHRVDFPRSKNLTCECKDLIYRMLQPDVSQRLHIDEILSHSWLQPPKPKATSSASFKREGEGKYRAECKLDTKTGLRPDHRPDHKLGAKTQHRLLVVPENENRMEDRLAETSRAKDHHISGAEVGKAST
readout_kind: IC50

**Q:** What value of measured IC50 is listed for CNC(=O)c1cc(Oc2ccc(NC(=O)Nc3cc(C(C)(C)C)nn3-c3ccc4ncccc4c3)c(F)c2)ccn1 [REBASTINIB] ?
**A:** > 1000 nM

====

biological target: Mitogen-activated protein kinase 13 (Homo sapiens); assay: Inhibition of human wild type p38 delta using RBER-CHKtide as substrate preincubated for 2 hrs followed by ATP addition and measured every 2 mins for […] by spectrophotometric analysis
Sequence (O15264 whole entry): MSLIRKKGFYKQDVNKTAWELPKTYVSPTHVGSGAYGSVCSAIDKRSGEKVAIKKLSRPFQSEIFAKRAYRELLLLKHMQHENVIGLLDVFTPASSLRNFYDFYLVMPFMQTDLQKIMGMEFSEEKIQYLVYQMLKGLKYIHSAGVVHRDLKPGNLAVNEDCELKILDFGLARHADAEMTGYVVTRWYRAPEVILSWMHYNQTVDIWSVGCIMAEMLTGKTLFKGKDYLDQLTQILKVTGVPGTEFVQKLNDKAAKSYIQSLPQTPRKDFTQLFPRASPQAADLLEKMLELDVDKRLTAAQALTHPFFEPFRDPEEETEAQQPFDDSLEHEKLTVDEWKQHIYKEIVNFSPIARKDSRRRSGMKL
pIC50: −log10 of the molar value.
readout_kind: pIC50

**Q:** What value of measured pIC50 is listed for CNC(=O)c1cc(Oc2ccc(NC(=O)Nc3cc(C(C)(C)C)nn3-c3ccc4ncccc4c3)c(F)c2)ccn1 ?
**A:** < 6.00

====

Molecular target: Serine/threonine-protein kinase Nek1 (Homo sapiens, UniProt Q96PY6)
Sequence (Q96PY6 whole entry): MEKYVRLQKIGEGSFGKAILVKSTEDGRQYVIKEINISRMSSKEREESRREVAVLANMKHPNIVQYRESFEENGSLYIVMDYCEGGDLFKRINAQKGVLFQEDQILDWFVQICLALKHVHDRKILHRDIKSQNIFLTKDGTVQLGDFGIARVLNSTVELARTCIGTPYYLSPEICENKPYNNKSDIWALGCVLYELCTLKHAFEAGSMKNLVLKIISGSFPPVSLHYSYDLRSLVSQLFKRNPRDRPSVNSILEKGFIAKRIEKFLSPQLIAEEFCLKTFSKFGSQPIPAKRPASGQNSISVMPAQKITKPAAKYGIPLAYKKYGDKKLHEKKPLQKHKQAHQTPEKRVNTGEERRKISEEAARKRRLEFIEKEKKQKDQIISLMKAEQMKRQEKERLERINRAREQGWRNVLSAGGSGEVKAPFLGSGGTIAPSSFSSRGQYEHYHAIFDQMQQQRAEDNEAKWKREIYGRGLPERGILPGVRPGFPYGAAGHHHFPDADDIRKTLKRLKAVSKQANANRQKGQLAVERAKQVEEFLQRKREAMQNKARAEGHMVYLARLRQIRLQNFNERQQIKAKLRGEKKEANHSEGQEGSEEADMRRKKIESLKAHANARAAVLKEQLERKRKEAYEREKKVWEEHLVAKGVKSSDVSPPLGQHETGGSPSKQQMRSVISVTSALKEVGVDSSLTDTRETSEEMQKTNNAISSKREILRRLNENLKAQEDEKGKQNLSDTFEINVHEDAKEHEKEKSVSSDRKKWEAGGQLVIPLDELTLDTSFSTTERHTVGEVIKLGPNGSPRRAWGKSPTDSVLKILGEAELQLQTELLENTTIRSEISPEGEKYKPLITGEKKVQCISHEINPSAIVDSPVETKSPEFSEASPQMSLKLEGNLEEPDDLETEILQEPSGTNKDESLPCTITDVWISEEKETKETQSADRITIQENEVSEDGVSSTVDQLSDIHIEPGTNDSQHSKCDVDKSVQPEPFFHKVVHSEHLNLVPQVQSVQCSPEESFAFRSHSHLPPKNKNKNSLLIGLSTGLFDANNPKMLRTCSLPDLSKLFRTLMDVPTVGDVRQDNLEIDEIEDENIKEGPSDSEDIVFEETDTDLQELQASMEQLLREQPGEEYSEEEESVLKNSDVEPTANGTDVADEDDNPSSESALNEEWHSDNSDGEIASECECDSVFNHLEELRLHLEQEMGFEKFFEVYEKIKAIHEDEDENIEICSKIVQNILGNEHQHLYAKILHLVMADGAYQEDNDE
Experiment: Inhibition of human wild type NEK1 using RBER-CHKtide as substrate preincubated for 2 hrs followed by ATP addition and measured every 2 mins for […] by spectrophotometric analysis
pIC50: −log10 of the molar value.
readout_kind: pIC50

**Q:** What value of pIC50 on Serine/threonine-protein kinase Nek1 (Homo sapiens, UniProt Q96PY6) does CNC(=O)c1cc(Oc2ccc(NC(=O)Nc3cc(C(C)(C)C)nn3-c3ccc4ncccc4c3)c(F)c2)ccn1 [REBASTINIB] have?
**A:** < 6.00

// provenance: ChEMBL document CHEMBL5678804
